Test system: Echinochloa crus-galli (ECHCG)
Assay: Pre-emergence herbicidal action against ECHCG
Assay type: in vivo
Settings: dosage 80 g/ha
measurementType: Pre-emergence action against ECHCG in % (%)

> print(dat)
                                   compound  unitssymbol  assayvalue
1  O=C(O)CSc1nn(-c2ccccn2)c(-c2cncc(F)c2)c1C1CC1            %          80
2  COC(=O)[C@H](C)COC(=O)COc1nn(-c2ccccn2)c(-c2cncc(F)c2)c1Cl [Example I-74]            %          80
3  COC(=O)CNC(=O)[C@@H](C)Oc1nn(-c2ccccn2)c(-c2cncc(F)c2)c1Cl            %          80
4  O=C(O)COc1nn(-c2nc(F)ccc2F)c(-c2cncc(F)c2)c1C1CC1            %          90
5  CCOC(=O)[C@@H](C)Oc1nn(-c2ncccc2F)c(-c2ccc(F)nc2)c1C1CC1            %          80
6  O=C(O)COc1nn(-c2ncccc2F)c(-c2ccc(F)nc2)c1Br [Example I-17]            %          90
7  O=C(O)COc1nn(-c2ncccc2F)c(-c2ccc(F)nc2)c1Br [Example I-08]            %          80
8  COC(=O)CCOC(=O)COc1nn(-c2ccccn2)c(-c2ccc(F)nc2)c1Cl            %          90
9  COC(=O)[C@@H](C)Oc1nn(-c2nc(F)ccc2F)c(-c2ccc(F)nc2)c1Cl            %          80

---

System: Oryza sativa (ORYSA)
Type: in vivo
Settings: crop plant compatibility, 20 g/ha, effect vs untreated controls
measurementType: Post-emergence action against ORYSA in % (%)

> print(dat)
                                 smilesdata  unitssymbol  assayvalue
1  O=C(O)COc1nn(-c2ccccn2)c(-c2cncc(F)c2)c1C1CC1            %          10
2  CCOC(=O)COc1nn(-c2ncccc2F)c(-c2ccnc(F)c2)c1I            %           0
3  CCOC(=O)[C@@H](C)Oc1nn(-c2ccccn2)c(-c2ccc(F)nc2)c1Br            %           0
4  COC(=O)CN(C)C(=O)COc1nn(-c2ccccn2)c(-c2ccc(F)nc2)c1Br            %           0
5  CCOC(=O)COc1nn(-c2ccccn2)c(-c2ccc(F)nc2)c1Cl            %           0

---

Test system: Setaria viridis (SETVI)
Assay: Pre-emergence herbicidal action against SETVI
Assay type: in vivo
Details: dosage 80 g/ha
measurementType: Pre-emergence action against SETVI in %

> print(dat)
                                  smilesdata  assayvalue
 1  O=C(O)COc1nn(-c2nc(F)ccc2F)c(-c2ccc(F)nc2)c1Br         90%
 2  CCOC(=O)COc1nn(-c2ncccc2F)c(-c2ccc(F)nc2)c1Br         90%
 3  COCCOC(=O)COc1nn(-c2ncccc2C)c(-c2cncc(F)c2)c1Br        100%
 4  COC(=O)[C@@H](C)Oc1nn(-c2nc(F)ccc2F)c(-c2cncc(F)c2)c1C1CC1        100%
 5  COC(=O)CNC(=O)COc1nn(-c2ccccn2)c(-c2ccc(F)nc2)c1Br         80%
 6  C#CCOC(=O)COc1nn(-c2ccccn2)c(-c2ccc(F)nc2)c1Br         90%
 7  C[C@@H](Oc1nn(-c2ccccn2)c(-c2ccc(F)nc2)c1Cl)C(=O)NCC(=O)O        100%
 8  CS(=O)(=O)NC(=O)COc1nn(-c2ncccc2F)c(-c2ccc(F)nc2)c1Br         90%
 9  COCCOC(=O)COc1nn(-c2ncccc2F)c(-c2ccc(F)nc2)c1Br         90%
10  O=C(O)COc1nn(-c2nc(F)ccc2F)c(-c2cncc(F)c2)c1Br         80%
11  C[C@@H](Oc1nn(-c2ccccn2)c(-c2cncc(F)c2)c1Br)C(=O)O        100%
12  CCOC(=O)[C@@H](C)Oc1nn(-c2ncccc2F)c(-c2ccc(F)nc2)c1Cl        100%
13  CCOC(=O)[C@@H](C)Oc1nn(-c2nc(F)ccc2F)c(-c2cncc(F)c2)c1Cl         90%
14  COC(=O)[C@H](C)COC(=O)COc1nn(-c2ccccn2)c(-c2ccc(F)nc2)c1Br         80%
15  C[C@@H](Oc1nn(-c2nc(F)ccc2F)c(-c2ccc(F)nc2)c1C1CC1)C(=O)O         90%
16  C[C@@H](Oc1nn(-c2nc(F)ccc2F)c(-c2cncc(F)c2)c1Cl)C(=O)O         90%
17  C=C(COC(=O)[C@@H](C)Oc1nn(-c2ccccn2)c(-c2ccc(F)nc2)c1Cl)C(=O)OC         90%

---

Test system: Setaria viridis (SETVI)
Assay: Post-emergence herbicidal action against SETVI
Type: in vivo
Conditions: dosage 320 g/ha
This listing pairs compounds with measured Post-emergence action against SETVI in %.
measurementType: Post-emergence action against SETVI in % (%)

> print(dat)
                                    compound  assayvalue
 1  COC(=O)COc1nn(-c2ncccc2F)c(-c2ccc(F)nc2)c1Br          90
 2  COC(=O)COc1nn(-c2nc(F)ccc2F)c(-c2cncc(F)c2)c1Cl          80
 3  CCOC(=O)COc1nn(-c2ncccc2C)c(-c2ccc(F)nc2)c1Br          90
 4  COC(=O)C(C)COC(=O)[C@@H](C)Oc1nn(-c2ccccn2)c(-c2cncc(F)c2)c1Br (stereo partly shown)          80
 5  CCOC(=O)[C@@H](C)Oc1nn(-c2ccccn2)c(-c2cncc(F)c2)c1Cl          90
 6  CCOC(=O)CSc1nn(-c2ccccn2)c(-c2cncc(F)c2)c1Cl          90
 7  COC(=O)[C@H](C)COC(=O)COc1nn(-c2ccccn2)c(-c2cncc(F)c2)c1Cl          80
 8  COC(=O)[C@@H](C)Oc1nn(-c2ncccc2F)c(-c2cccnc2)c1C#N         100
 9  COC(=O)C(C)COC(=O)C(C)Oc1nn(-c2ccccn2)c(-c2ccc(F)nc2)c1Cl (stereo not shown)          80
10  C[C@@H](Oc1nn(-c2ncccc2F)c(-c2cncc(F)c2)c1C1CC1)C(=O)O          90
11  C#CCOC(=O)COc1nn(-c2ccccn2)c(-c2ccc(F)nc2)c1Br          80
12  C[C@@H](Oc1nn(-c2nc(F)ccc2F)c(-c2cncc(F)c2)c1Cl)C(=O)O          80
13  CC(C)OC(=O)COc1nn(-c2ncccc2F)c(-c2ccc(F)nc2)c1C1CC1          90
14  O=C(O)COc1nn(-c2nc(F)ccc2F)c(-c2ccc(F)nc2)c1Cl          80
15  C[C@@H](Oc1nn(-c2nc(F)ccc2F)c(-c2cncc(F)c2)c1Br)C(=O)O          90
16  CCOC(=O)[C@@H](C)Oc1nn(-c2ncccc2F)c(-c2ccc(F)nc2)c1C1CC1          90
17  C[C@@H](Oc1nn(-c2ccc(F)cn2)c(-c2cncc(F)c2)c1Br)C(=O)O          90
18  CCOC(=O)[C@@H](C)Oc1nn(-c2ncccc2F)c(-c2ccnc(F)c2)c1Br          80
19  C[C@@H](Oc1nn(-c2ncccc2F)c(-c2ccc(F)nc2)c1C1CC1)C(=O)O          90
20  COC(=O)[C@@H](C)Oc1nn(-c2ccccn2)c(-c2ccc(F)nc2)c1Br          80
21  COC(=O)C(C)NC(=O)[C@@H](C)Oc1nn(-c2ccccn2)c(-c2cncc(F)c2)c1Br (stereo partly shown)          80
22  CCOC(=O)COc1nn(-c2cccnc2C)c(-c2cncc(F)c2)c1Br          90
23  O=C(O)COc1nn(-c2ncccc2F)c(-c2ccc(F)nc2)c1Br          90
24  COC(=O)CNC(=O)CSc1nn(-c2ccccn2)c(-c2cncnc2)c1Br          80
25   O=C(O)COc1nn(-c2ccccn2)c(-c2cncnc2)c1Br          90
26  COC(=O)[C@@H](C)Oc1nn(-c2ncccc2F)c(-c2cncc(F)c2)c1Cl          90
27  COC(=O)CCOC(=O)COc1nn(-c2ccccn2)c(-c2ccc(F)nc2)c1Cl          80
28  COCCOC(=O)COc1nn(-c2ncccc2C)c(-c2cncc(F)c2)c1Br          80
29  CCOC(=O)COc1nn(-c2cccc(C)n2)c(-c2ccc(F)nc2)c1Br          80
30  O=C(COc1nn(-c2ncccc2F)c(-c2ccc(F)nc2)c1C1CC1)OCc1ccccc1          90
31  O=C(O)COc1nn(-c2nc(F)ccc2F)c(-c2cncc(F)c2)c1Br          90
32  COC(=O)[C@@H](C)Oc1nn(-c2ncccc2F)c(-c2cncc(F)c2)c1Br          90
33  COC(=O)CCOC(=O)COc1nn(-c2ccccn2)c(-c2ccc(F)nc2)c1F          90
34  Cc1ncccc1-n1nc(OCC(=O)OCc2ccccn2)c(Br)c1-c1cncc(F)c1          90
